# Test system: UACC-257
# Experiment: NCI tumour cell line growth inhibition, 48 h
Calls of active or inactive are those of the source. No stated cut-off is given here; in the data, active = GI50 up to about 1.1 µM and inactive = higher.
For each entry below, report its GI50 value.

Problem: Form field: reported GI50 of COC(=O)C1[C@H](c2cc(OC)c(OC)c(OC)c2)OC(=O)C1(C(=O)OC)C(=O)c1ccc2c(c1)OCO2 (some centres undefined)
Solution: > 100 µM (inactive)

Problem: Form field: reported GI50 of "COc1ccc(/C=N/c2nc3cc4sc(/N=C/c5ccc(OC)cc5)nc4cc3s2)cc1"
Solution: 70.6 µM (inactive)

Problem: Form field: reported GI50 of "Cn1ccnc1SC(F)(F)c1nc2ccccc2o1"
Solution: > 100 µM (inactive)

Problem: Form field: reported GI50 of N#CC(Cc1ccccc1)N(CCC1=CCCCC1)C(c1ccccc1)c1ccccc1 (centres undefined)
Solution: 43 µM (inactive)

Problem: Form field: reported GI50 of "Oc1ccc2ccccc2c1/C=C/c1ccc2c(Br)cc(Br)c(O)c2n1"
Solution: 8.49 µM (inactive)

Problem: Form field: reported GI50 of CC1(C)CCCCCC(C)(CCCO)C1=O (centres undefined)
Solution: > 100 µM (inactive)

Problem: Form field: reported GI50 of CCOC(=O)C1c2[nH]c3ccccc3c2CCN1C(=O)c1ccco1 (centres undefined)
Solution: > 10 µM (inactive)

Problem: Form field: reported GI50 of CC(=O)NC1C(OCc2ccccc2)OC(CO)C(O)C1OC(C)C(=O)NC(C)C(=O)NC(CCC(=O)NCCCNc1c2ccccc2nc2cccc([N+](=O)[O-])c12)C(N)=O (centres undefined)
Solution: 2 µM (inactive)

Problem: Form field: reported GI50 of "COc1ccc2[nH]c3c(C)c4ccnc(NCCCN(C)CCCNc5ccc6nnn7c8ccccc8c(=O)c5c67)c4c(C)c3c2c1"
Solution: 1.43 µM (inactive)

* * *

# System: RXF 631
# Experiment: NCI tumour cell line growth inhibition, 48 h
Active and inactive are the calls of the source. No stated cut-off is given here; in the data, active = GI50 up to about 1.1 µM and inactive = higher.
For each entry below, report its GI50 value.

Problem: Form field: reported GI50 of "O=c1[nH]cc(COCCO)c(=O)[nH]1"
Solution: > 100 µM (inactive)

Problem: Form field: reported GI50 of "COc1ccc2c(c1)[n+]([O-])c(-c1ccc(Cl)c(Cl)c1)c(N)[n+]2[O-]"
Solution: 21.3 µM (inactive)

Problem: Form field: reported GI50 of "CCCCCCCCCCCCCCCCOC(=O)C(C(=O)OCCCCCCCCCCCCCCCC)[N+](C)(C)CCOC(C)=O"
Solution: 12.5 µM (inactive)

Problem: Form field: reported GI50 of "Cc1ccccc1C1=[N+]([O-])c2ccccc2C1=O"
Solution: 23.6 µM (inactive)

Problem: Form field: reported GI50 of CCN(CC)CCC1(C2CCCCC2)CCC(=O)NC1=O (stereo not given)
Solution: > 100 µM (inactive)

Problem: Form field: reported GI50 of O=C(CC(=O)N1N=C(n2ccc3ccccc32)CC1c1ccccc1)Nc1cccc(Cl)c1 (stereo not given)
Solution: > 100 µM (inactive)

Problem: Form field: reported GI50 of CC(=O)C(CN(CC(C)C)CC(C)C)C(c1ccccc1)c1c(O)c2ccccc2oc1=O (stereo not given)
Solution: > 100 µM (inactive)

Problem: Form field: reported GI50 of "Cc1cc(C)nc(NS(=O)(=O)c2ccc(Nc3c4ccc(Cl)cc4nc4c(C(=O)Nc5ccc(S(N)(=O)=O)cc5)cccc34)cc2)n1"
Solution: 18.2 µM (inactive)

Problem: Form field: reported GI50 of CCn1cc(/C=C/C(C)c2cn(CC)c(=O)[nH]c2=O)c(=O)[nH]c1=O (stereo not given)
Solution: > 100 µM (inactive)

Problem: Form field: reported GI50 of "Oc1cc(O)c(Oc2cccc(O)c2O)c(O)c1"
Solution: > 100 µM (inactive)
